Numbers sourced from paper PMC10720709.

Target: recombinant BRD4 (BD1 + BD2) (Homo sapiens, UniProt O60885)
Construct: employing a recombinant BRD4 (BD1 + BD2) and its corresponding ligand
Assay: BRD4 TR-FRET activity assay;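 note: signal rises with BET ligand binding to the bromodomains, so inhibitors lower it, 120 min incubation at room temperature, 1% DMSO, wells lacking ligand as negative control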
Details: TR-FRET, BRD4 (BD1 + BD2)
Lab note: cut-off is 500 nM. Strictly less in IC50 is rule met. Exactly 500 nM or more is rule not met.

>  <structure>
Cc1noc(C)c1-c1cc(Cc2n[nH]c(=O)c3ccccc23)cc(NCc2cccc(N)c2)c1

>  <assigned-class>
rule not met

$$$$
>  <structure>
Cc1noc(C)c1-c1cc(Cc2n[nH]c(=O)c3ccccc23)cc(C(=O)N2CC[C@H](O)C2)c1

>  <assigned-class>
rule not met

$$$$
>  <structure>
Cc1ccc(S(=O)(=O)Nc2cc(Cc3n[nH]c(=O)c4ccccc34)cc(-c3c(C)noc3C)c2)cc1

>  <assigned-class>
rule not met

$$$$
>  <structure>
CC(=O)Nc1ccc(CNc2cc(Cc3n[nH]c(=O)c4ccccc34)cc(-c3c(C)noc3C)c2)cc1

>  <assigned-class>
rule met

$$$$
>  <structure>
Cc1noc(C)c1-c1cc(Cc2n[nH]c(=O)c3ccccc23)cc(NC(=O)c2ccccc2C(F)(F)F)c1

>  <assigned-class>
rule met

$$$$
>  <structure>
Cc1cccc(C(=O)Nc2cc(Cc3n[nH]c(=O)c4ccccc34)cc(-c3c(C)noc3C)c2)c1

>  <assigned-class>
rule not met

$$$$

====

As shown below, each of these compounds has a reported melting point value.

>  <structure>
Cc1noc(C)c1-c1cc(Cc2n[nH]c(=O)c3ccccc23)cc(NS(=O)(=O)c2ccccc2Br)c1

>  <melting point>
171 to 172 °C

$$$$
>  <structure>
Cc1noc(C)c1-c1cc(Cc2n[nH]c(=O)c3ccccc23)cc(C(=O)N2CCC[C@H](O)C2)c1

>  <melting point>
157 to 158 °C

$$$$
>  <structure>
Cc1noc(C)c1-c1cc(Cc2n[nH]c(=O)c3ccccc23)cc(C(=O)N2CCOCC2)c1

>  <melting point>
241 to 242 °C

$$$$
>  <structure>
Cc1noc(C)c1-c1cc(Cc2n[nH]c(=O)c3ccccc23)cc(C(=O)NC2CCCCC2)c1

>  <melting point>
178 to 179 °C

$$$$

====

quantity-kind: melting point

>  <compound>
COc1ccc(S(=O)(=O)Nc2cc(Cc3n[nH]c(=O)c4ccccc34)cc(-c3c(C)noc3C)c2)cc1OC [DDT70]

>  <experimental-result>
165 to 166 °C

$$$$
>  <compound>
Cc1noc(C)c1-c1cc(Cc2n[nH]c(=O)c3ccccc23)cc(NS(=O)(=O)c2ccc(C(C)(C)C)cc2)c1 [DDT65]

>  <experimental-result>
154 to 155 °C

$$$$
>  <compound>
Cc1noc(C)c1-c1cc(Cc2n[nH]c(=O)c3ccccc23)cc(C(=O)N2CCN(C(=O)C3CC3)CC2)c1 [DDT17]

>  <experimental-result>
154 to 155 °C

$$$$
>  <compound>
Cc1noc(C)c1-c1cc(Cc2n[nH]c(=O)c3ccccc23)cc(NC(=O)c2ccc(N)cc2)c1 [DDT32]

>  <experimental-result>
188 to 189 °C

$$$$
>  <compound>
Cc1noc(C)c1-c1cc(Cc2n[nH]c(=O)c3ccccc23)cc(NC(=O)c2cccc(N)c2)c1 [DDT31]

>  <experimental-result>
236 to 237 °C

$$$$
>  <compound>
CCS(=O)(=O)Nc1cc(Cc2n[nH]c(=O)c3ccccc23)cc(-c2c(C)noc2C)c1 [DDT50]

>  <experimental-result>
195 to 196 °C

$$$$
>  <compound>
Cc1noc(C)c1-c1cc(Cc2n[nH]c(=O)c3ccccc23)cc(NS(=O)(=O)c2ccc(Cl)cc2)c1 [DDT89]

>  <experimental-result>
147 to 148 °C

$$$$
>  <compound>
Cc1noc(C)c1-c1cc(Cc2n[nH]c(=O)c3ccccc23)cc(C(=O)N2CC[C@H](O)C2)c1 [DDT14]

>  <experimental-result>
204 to 205 °C

$$$$
